Recorded values, source the array DNA melting data of Ke et al. (doi:10.1101/2024.01.08.574731).

The entries below are paired with their reported folding enthalpy.
# Measurement Description: folding enthalpy; higher = less favourable; fluorescence melt of hairpins on a sequencing array, two-state fit
# Measurement Setup: sodium 0.088 M
Enter your answer as a number in kcal/mol; do not include the unit.

Macromolecule Sequence	folding enthalpy, kcal/mol
GAAAGCGAAAGCTCTTTC ((((((....)))..)))	-16.7

INPUT: For the sequence GTAAAACGAAAGTTTAC (((.(((....)))))) , give its measured folding enthalpy value.
OUTPUT: -17.4

INPUT: // Input: GCGAGCTATCGC ((((....)))) . Output its folding enthalpy only.
OUTPUT: -24.2

INPUT: Please list folding enthalpy recorded for the sequence GCTCGCGAAAGCGTAAGC ((((((....)))..)))
OUTPUT: -13.4

INPUT: Check the records and state folding enthalpy for GGGTCAGGAAACTGACTC (.(((((....))))).)
OUTPUT: -30.7

INPUT: Determine from records and report folding enthalpy for GCGTCGCGAAAGCAAAGC ((.(.((....)).).))
OUTPUT: -21.3

====

Property: folding enthalpy; scope: individual sequences
# Measurement Description: folding enthalpy; higher = less favourable; fluorescence melt of hairpins on a sequencing array, two-state fit
# Measurement Setup: sodium 0.088 M
Give your result in kcal/mol as a bare value.

Some solved cases for reference:
Macromolecule Sequence	folding enthalpy / kcal/mol
GTAATGCGAAAGCAGTAC (((.(((....))).)))	-30.6
GAGCGTGGAAACACACTC (((.(((....))).)))	-30.5
GAAGCCGGAAACAGCTTC (((((.(....).)))))	-29.2
GATCTGCTACAGATC ((((((...))))))	-29.6
AGTTGGAAACAACT (((((....)))))	-19.9

--- query ---
INPUT: Supply folding enthalpy value. Item: GGTTCCGAAAGGATTACC ((((((....)))..)))
OUTPUT: -19.9

====

# Measurement Description: folding enthalpy; higher = less favourable; fluorescence melt of hairpins on a sequencing array, two-state fit
# Measurement Setup: sodium 0.088 M
Reported Endpoint: folding enthalpy (kcal/mol)
# unit: kcal/mol | format: bare number

Macromolecule Sequence	Measure Unit	folding enthalpy
GGGGTCGAAAGACGTCCC ((((((....)))..)))	kcal/mol	-18.5
GCCGACTCGAAAGAGGGC (((..(((....))))))	kcal/mol	-23.1
GGCAGGGAAACCTGCC ((((((....))))))	kcal/mol	-30.2
GGCATTGGAAACGATGCC (((((.(....).)))))	kcal/mol	-42.5
CGCGGACGCCTCCGCG ((((((....))))))	kcal/mol	-32

INPUT: Name the recorded folding enthalpy of the sequence listed here: GACGTGCGAAAGCATGTC (((.(((....))).)))
OUTPUT: -35.2

INPUT: Name the recorded folding enthalpy of the item GGGGTCGGAAACGGCTCC ((.(.((....)).).)) in your answer.
OUTPUT: -42.8

INPUT: Quickly give me recorded folding enthalpy for GATCTAGGTTTAGATC ((((((....))))))
OUTPUT: -28.5

INPUT: Look up folding enthalpy of GGTCCCACGAAAGTGACC (((..(((....)))))) and report it.
OUTPUT: -15.8

INPUT: Quote folding enthalpy reported for GACGGCGAAAGCCTGGTC ((((((....)))..))) please.
OUTPUT: -15.1

INPUT: Return folding enthalpy (reported value) for this sequence: GATCATGGGTATGATC ((((((....))))))
OUTPUT: -34.6

INPUT: Please give measured folding enthalpy of the following entry: GCAAAGCCGAAAGGCTGC (((..(((....))))))
OUTPUT: -14.2

INPUT: Return reported folding enthalpy. Input sequence: GTGATATCGAAAGATCAC (((..(((....))))))
OUTPUT: -27.8

====

Tm overview
# Measurement Description: melting temperature; fluorescence melt of hairpins on a sequencing array, two-state fit, raised by 9.35 °C to match UV melts
# Measurement Setup: sodium 0.088 M
Your answer should be a plain number; it is taken to be in °C.

Sample answers from the record:
Macromolecule Sequence	Measure Unit	Experimental Value
GAATGGCGAAAGCCCTTC (((.(((....))).)))	°C	38.4
GGGTGACCGAAAGGTCCC (((..(((....))))))	°C	51.6
GTGATCGGAAACGATCGC (.(((((....))))).)	°C	57.6
GATCGGCCGCCGATC ((((((...))))))	°C	55.7
GCTCGGCGAAAGCGCAGC (((..((....))..)))	°C	51.1

INPUT: Identify measured Tm associated with GATTGCGAAAGCAAATC ((((((....))).)))
OUTPUT: 50.2

INPUT: Supply recorded Tm for GGTCTACGAAAGTATACC (((.(((....))).))) here.
OUTPUT: 42.2

INPUT: Specify Tm for GCACTGCGAAAGCTGAGC ((.(.((....)).).)) and stop.
OUTPUT: 49.2

INPUT: Provide measured Tm value, entry: GGCACGGGAAACTGTGCC (((((.(....).)))))
OUTPUT: 62.2

====

# Measurement Description: melting temperature; fluorescence melt of hairpins on a sequencing array, two-state fit, raised by 9.35 °C to match UV melts
# Measurement Setup: sodium 0.088 M
// label = condition met if Tm is not less than 50 °C, otherwise condition not met

Macromolecule Sequence	Class Name
GGGCTGGGAAACCAGTCC ((.((((....)))).))	condition met
GCATCGGGAAACCGATAC (.(((((....))))).)	condition not met
GGCTGCGAAAGCACGCC ((((((....))).)))	condition met
GGGAACGAAAGTTGACCC ((((((....)))..)))	condition not met
GACTACGAAAGTAATGTC ((((((....)))..)))	condition not met

INPUT: Textbook exercise: given the entry GTGACCGAAAGGTGACAC ((((((....)))..))) , state whether its Tm is greater than or equal to 50 °C.
OUTPUT: condition not met

INPUT: Say whether GCCGTGACGAAAGTCGGC (((..(((....)))))) shows Tm of 50 °C or more.
OUTPUT: condition met

INPUT: Please indicate if the recorded Tm for GATCTACAAGTAGATC ((((((....)))))) meets or exceeds 50 °C.
OUTPUT: condition not met

INPUT: Quick check, Tm >= 50 °C? GTCAGCGAAAGCTCTGAC ((((((....)))..)))
OUTPUT: condition not met

INPUT: I'd appreciate it if you could say whether GCGAAGCGAAAGCGTCGC ((((.((....)).)))) has Tm at least equal to 50 °C.
OUTPUT: condition met

INPUT: Item GGTTTGCGAAAGCATACC (((.(((....))).))) with Tm of 50 °C or above?
OUTPUT: condition met

INPUT: Evaluate GCTATCGAAAGATCCAGC ((((((....)))..))) : Tm at minimum 50 °C?
OUTPUT: condition not met

INPUT: Determine whether measured Tm meets or exceeds 50 °C for GCAGATGGAAACGTCTGC (((((.(....).)))))
OUTPUT: condition met

INPUT: Determine whether measured Tm meets or exceeds 50 °C for GCTCTTTCGAAAGAAAGC (((..(((....))))))
OUTPUT: condition not met

INPUT: Is reported Tm greater than or equal to 50 °C here: GCTTAAGGAAACTTAGGC ((.((((....)))).))
OUTPUT: condition not met

INPUT: Given GATCCTGAATAGGATC ((((((....)))))) , state whether its Tm is at least 50 °C.
OUTPUT: condition met

====

# Measurement Description: melting temperature; fluorescence melt of hairpins on a sequencing array, two-state fit, raised by 9.35 °C to match UV melts
# Measurement Setup: sodium 0.088 M
Parameter: Tm. Scope: all listed entries.
All answers are understood in °C, so give the number only.

Macromolecule Sequence	Tm (°C)
GCCCCTCGAAAGAGAGGC (((.(((....))).)))	52.8
GATCAGTTTGCTGATC ((((((....))))))	53.8

With those in mind, consider the next sequence.
INPUT: Please report Tm for the following sequence: GATCAACCGATTGATC ((((((....))))))
OUTPUT: 41.5

====

# Measurement Description: melting temperature; fluorescence melt of hairpins on a sequencing array, two-state fit, raised by 9.35 °C to match UV melts
# Measurement Setup: sodium 0.088 M
Reported Endpoint: Tm
Show the value, then the unit it is measured in.

INPUT: Please report Tm for the following sequence: GTCAACGCGAAAGCGGAC (((..(((....))))))
OUTPUT: 42 °C

INPUT: Name the recorded Tm of the item GCAATGCGAAAGCTTGGC ((.(.((....)).).)) in your answer.
OUTPUT: 40.6 °C

INPUT: Return reported Tm. Input sequence: GATCAGTTCGCTGATC ((((((....))))))
OUTPUT: 54.1 °C

INPUT: Give recorded Tm. GTACCAGGAAACTGATAC (((.(((....))).)))
OUTPUT: 31.4 °C

INPUT: Look up and report measured Tm for this entry: GTGAACGAAAGTTACCAC ((((((....)))..)))
OUTPUT: 26 °C

INPUT: Return Tm for the following sequence: GACTGCGAAAGCAAGGTC ((((((....)))..)))
OUTPUT: 45.1 °C

INPUT: Using known records, supply Tm for GGATACGGAAACGTATTC (.(((((....))))).)
OUTPUT: 45.2 °C

INPUT: Please report the measured Tm for GCGTGCGCGAAAGCGCGC (((..(((....))))))
OUTPUT: 65.1 °C

INPUT: Respond only with Tm recorded for GTTACCGAAAGGTAGAAC ((((((....)))..)))
OUTPUT: 29.3 °C
